# Tested on: biotinyl-Val-oxazolone
# test-details: self-aminoacylation, catalytic enhancement (BVO) (fold over background); higher = more active; k-Seq, kA / k0A0; sequences stand for … in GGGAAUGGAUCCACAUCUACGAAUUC…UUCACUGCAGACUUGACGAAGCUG
Variants at the floor of the assay were thinned out.
quantity-measured: self-aminoacylation
Write the value as a bare number.

Below: 4 sequences and their reported self-aminoacylation.
>  <biosequence>
AAGUUUCCUAAUAGACGCAAG [Fam3.1 aminoacylation ribozyme variant]

>  <quantity-measured>
self-aminoacylation

>  <experimental-value>
0.805

$$$$
>  <biosequence>
AAGUUUGCUAAGAGUCGCAAG [Fam3.1 aminoacylation ribozyme variant]

>  <quantity-measured>
self-aminoacylation

>  <experimental-value>
0.741

$$$$
>  <biosequence>
AUUUCCCUUGUCAUCGAGUGA [Fam2.1 aminoacylation ribozyme variant]

>  <quantity-measured>
self-aminoacylation

>  <experimental-value>
4.17

$$$$
>  <biosequence>
AAGUUUGGUAAUAGUCACAAG [Fam3.1 aminoacylation ribozyme variant]

>  <quantity-measured>
self-aminoacylation

>  <experimental-value>
1.07

$$$$

Note: attention shifts to another entry.
Req: Which self-aminoacylation reading was recorded for the sequence CCACACUUCAAUCAAUCGGUU [Fam1B.1 aminoacylation ribozyme variant] ?
Resp: 1.21

* * *

# System: biotinyl-Leu-oxazolone
# test-details: self-aminoacylation, catalytic enhancement (BLO) (fold over background); higher = more active; k-Seq, kA / k0A0; sequences stand for … in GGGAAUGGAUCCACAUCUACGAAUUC…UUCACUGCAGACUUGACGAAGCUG
Fewer inactive variants are shown than the library holds.
Param threshold (2) applies to self-aminoacylation; output label 1 when value >= threshold, label 0 when value < threshold.

Previously resolved entries follow.
>  <biosequence>
CAACACUUUAAGCAAUCGGUC [Fam1B.1 aminoacylation ribozyme variant]

>  <class-label>
label 0

$$$$
>  <biosequence>
AUCCACCUGGGUCAUCGGGUG [Fam2.2 aminoacylation ribozyme variant]

>  <class-label>
label 1

$$$$
>  <biosequence>
ACACACUUCAAACAAUCGGUC [Fam1B.1 aminoacylation ribozyme variant]

>  <class-label>
label 1

$$$$
>  <biosequence>
CUACUUCAACCAAACGGUCUG [Fam1A.1 aminoacylation ribozyme variant]

>  <class-label>
label 0

$$$$

Req: Is reported self-aminoacylation greater than or equal to 2 here: CCACACUUCAUGCAAUCGGCC [Fam1B.1 aminoacylation ribozyme variant]
Resp: label 1

Req: How about CUUACCGUGGUCAUCGAGUGA [Fam2.1 aminoacylation ribozyme variant] ?
Resp: label 1

Req: How about UAGUUUGCUAAUAGUCGCGAG [Fam3.1 aminoacylation ribozyme variant] ?
Resp: label 1

Req: How about AUUCAACAAGGUCAUCGGGUG [Fam2.2 aminoacylation ribozyme variant] ?
Resp: label 1

Req: How about AUUCAGCUAUGUCAUCGGGUG [Fam2.2 aminoacylation ribozyme variant] ?
Resp: label 1

* * *

# Tested on: biotinyl-Leu-oxazolone
# test-details: self-aminoacylation, catalytic enhancement (BLO) (fold over background); higher = more active; k-Seq, kA / k0A0; sequences stand for … in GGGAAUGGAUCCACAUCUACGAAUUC…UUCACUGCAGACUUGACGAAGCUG
Variants at the floor of the assay were thinned out.
quantity-measured: self-aminoacylation
Write the value as a bare number.

Below: 5 sequences and their reported self-aminoacylation.
>  <biosequence>
AUUACCCUCGACAUCGAGUGA [Fam2.1 aminoacylation ribozyme variant]

>  <quantity-measured>
self-aminoacylation

>  <experimental-value>
12.7

$$$$
>  <biosequence>
AAGUUUGAUAAUAGCCGCAAG [Fam3.1 aminoacylation ribozyme variant]

>  <quantity-measured>
self-aminoacylation

>  <experimental-value>
1.05

$$$$
>  <biosequence>
UUUACCCUGGUGAUCGAGUGA [Fam2.1 aminoacylation ribozyme variant]

>  <quantity-measured>
self-aminoacylation

>  <experimental-value>
6.55

$$$$
>  <biosequence>
CCACGCUUCAAGCAAUCAGUC [Fam1B.1 aminoacylation ribozyme variant]

>  <quantity-measured>
self-aminoacylation

>  <experimental-value>
0.886

$$$$
>  <biosequence>
AUUGCCCUGGUCAUAGAGUGA [Fam2.1 aminoacylation ribozyme variant]

>  <quantity-measured>
self-aminoacylation

>  <experimental-value>
8.58

$$$$

Req: Which self-aminoacylation reading was recorded for the sequence AGUCACCUAGGUCAGCGGGUG [Fam2.2 aminoacylation ribozyme variant] ?
Resp: 5.54

Req: How about AUCCACCUAGGACAUCGGGUG [Fam2.2 aminoacylation ribozyme variant] ?
Resp: 4.49

Req: How about AUUCACCUCGGUCUUCGGGUG [Fam2.2 aminoacylation ribozyme variant] ?
Resp: 6.72

Req: How about CUACUUUAUACAAUCGGUCUG [Fam1A.1 aminoacylation ribozyme variant] ?
Resp: 0.808

* * *

# Tested on: biotinyl-Val-oxazolone
# test-details: self-aminoacylation, catalytic enhancement (BVO) (fold over background); higher = more active; k-Seq, kA / k0A0; sequences stand for … in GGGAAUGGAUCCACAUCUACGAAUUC…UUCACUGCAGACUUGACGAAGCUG
Fewer inactive variants are shown than the library holds.
# maps each entry to its self-aminoacylation
Write the value as a bare number.

Below: 2 sequences and their reported self-aminoacylation.
>  <biosequence>
ACACACCUAGGUCAUCGGGUG [Fam2.2 aminoacylation ribozyme variant]

>  <self-aminoacylation>
3.19

$$$$
>  <biosequence>
AAGUUUGCUAGUAGUCACAAG [Fam3.1 aminoacylation ribozyme variant]

>  <self-aminoacylation>
1.08

$$$$

Req: Which self-aminoacylation reading was recorded for the sequence AUUACCCUGGUCAACGAGUGG [Fam2.1 aminoacylation ribozyme variant] ?
Resp: 1.09

Req: How about AUUCACAUAGGUCAUUGGGUG [Fam2.2 aminoacylation ribozyme variant] ?
Resp: 3.23

Req: How about CUAAUUCAAACAAUCAGUCUG [Fam1A.1 aminoacylation ribozyme variant] ?
Resp: 0.772

Req: How about AUUACCCUGGUCAACGAGUCA [Fam2.1 aminoacylation ribozyme variant] ?
Resp: 0.969

Req: How about AAGUUUGAUAUUAGUCGCAAG [Fam3.1 aminoacylation ribozyme variant] ?
Resp: 1.4

Req: How about AUUAAGCUAGGUCAUCGGGUG [Fam2.2 aminoacylation ribozyme variant] ?
Resp: 3.77

Req: How about AUUAACCAAGGUCAUCGGGUG [Fam2.2 aminoacylation ribozyme variant] ?
Resp: 4.19

* * *

# System: biotinyl-Ile-oxazolone
# test-details: self-aminoacylation, catalytic enhancement (BIO) (fold over background); higher = more active; k-Seq, kA / k0A0; sequences stand for … in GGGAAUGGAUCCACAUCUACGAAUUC…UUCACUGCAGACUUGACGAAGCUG
This sample holds only a part of the variants without activity.
Param threshold (1) applies to self-aminoacylation; output rule met when value >= threshold, rule not met when value < threshold.

Previously resolved entries follow.
>  <biosequence>
AAGUUUGCUCAUAGUCUCAAG [Fam3.1 aminoacylation ribozyme variant]

>  <class-label>
rule not met

$$$$
>  <biosequence>
AUUAACCUCGGUCAUCGGGUG [Fam2.2 aminoacylation ribozyme variant]

>  <class-label>
rule met

$$$$

In the following, a different sequence is considered.
Req: Is reported self-aminoacylation greater than or equal to 1 here: AUUCACAUAGGUCAUUGGGUG [Fam2.2 aminoacylation ribozyme variant]
Resp: rule met

* * *

# Test system: biotinyl-Leu-oxazolone
# test-details: self-aminoacylation, catalytic enhancement (BLO) (fold over background); higher = more active; k-Seq, kA / k0A0; sequences stand for … in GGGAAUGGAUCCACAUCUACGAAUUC…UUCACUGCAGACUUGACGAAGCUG
Variants at the floor of the assay were thinned out.
Param threshold (1) applies to self-aminoacylation; output condition met when value >= threshold, condition not met when value < threshold.

>  <biosequence>
CCAUACUUCAAGCAAUGGGUC [Fam1B.1 aminoacylation ribozyme variant]

>  <class-label>
condition not met

$$$$
>  <biosequence>
AAGUUUGCUAAGAUUCGCAAG [Fam3.1 aminoacylation ribozyme variant]

>  <class-label>
condition not met

$$$$
>  <biosequence>
AUUACUCUGUUCAUCGAGUGA [Fam2.1 aminoacylation ribozyme variant]

>  <class-label>
condition met

$$$$
>  <biosequence>
CCACACGUCAAUCAAUCGGUC [Fam1B.1 aminoacylation ribozyme variant]

>  <class-label>
condition not met

$$$$
>  <biosequence>
AUUCACCUAUGUCAUCGGAUG [Fam2.2 aminoacylation ribozyme variant]

>  <class-label>
condition not met

$$$$

In the following, a different sequence is considered.
Req: Is reported self-aminoacylation greater than or equal to 1 here: CCACACUCCAAGCACUCGGUC [Fam1B.1 aminoacylation ribozyme variant]
Resp: condition not met

* * *

# Test system: biotinyl-Phe-oxazolone
# test-details: self-aminoacylation, catalytic enhancement (BFO) (fold over background); higher = more active; k-Seq, kA / k0A0; sequences stand for … in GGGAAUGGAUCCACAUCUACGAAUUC…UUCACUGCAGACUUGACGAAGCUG
Variants at the floor of the assay were thinned out.
Param threshold (2) applies to self-aminoacylation; output y when value >= threshold, n when value < threshold.

Previously resolved entries follow.
>  <biosequence>
AUUCACCAAGGUCAUCGAGUG [Fam2.2 aminoacylation ribozyme variant]

>  <system-under-test>
biotinyl-Phe-oxazolone

>  <class-label>
y

$$$$
>  <biosequence>
AGUACACUGGUCAUCGAGUGA [Fam2.1 aminoacylation ribozyme variant]

>  <system-under-test>
biotinyl-Phe-oxazolone

>  <class-label>
y

$$$$
>  <biosequence>
CUGCUUCAAACAAUUGGUCUG [Fam1A.1 aminoacylation ribozyme variant]

>  <system-under-test>
biotinyl-Phe-oxazolone

>  <class-label>
n

$$$$
>  <biosequence>
AAGGUUGCUAAUAGUCGCCAG [Fam3.1 aminoacylation ribozyme variant]

>  <system-under-test>
biotinyl-Phe-oxazolone

>  <class-label>
y

$$$$
>  <biosequence>
AUUCUCCUAGGUAAUCGGGUG [Fam2.2 aminoacylation ribozyme variant]

>  <system-under-test>
biotinyl-Phe-oxazolone

>  <class-label>
y

$$$$
>  <biosequence>
CUAUUUCAAACAAUCGGACUG [Fam1A.1 aminoacylation ribozyme variant]

>  <system-under-test>
biotinyl-Phe-oxazolone

>  <class-label>
n

$$$$
>  <biosequence>
UUUACCCUGGUGAUCGAGUGA [Fam2.1 aminoacylation ribozyme variant]

>  <system-under-test>
biotinyl-Phe-oxazolone

>  <class-label>
y

$$$$
>  <biosequence>
AAGUUUGCUAAUAUUCGCAGG [Fam3.1 aminoacylation ribozyme variant]

>  <system-under-test>
biotinyl-Phe-oxazolone

>  <class-label>
n

$$$$

Req: Is reported self-aminoacylation greater than or equal to 2 here: UUACUUCAAACAAUCGGUUUG [Fam1A.1 aminoacylation ribozyme variant]
Resp: y
